# Assay Target: human SGLT1 (Homo sapiens (Human))
# Sequence (P13866 whole entry): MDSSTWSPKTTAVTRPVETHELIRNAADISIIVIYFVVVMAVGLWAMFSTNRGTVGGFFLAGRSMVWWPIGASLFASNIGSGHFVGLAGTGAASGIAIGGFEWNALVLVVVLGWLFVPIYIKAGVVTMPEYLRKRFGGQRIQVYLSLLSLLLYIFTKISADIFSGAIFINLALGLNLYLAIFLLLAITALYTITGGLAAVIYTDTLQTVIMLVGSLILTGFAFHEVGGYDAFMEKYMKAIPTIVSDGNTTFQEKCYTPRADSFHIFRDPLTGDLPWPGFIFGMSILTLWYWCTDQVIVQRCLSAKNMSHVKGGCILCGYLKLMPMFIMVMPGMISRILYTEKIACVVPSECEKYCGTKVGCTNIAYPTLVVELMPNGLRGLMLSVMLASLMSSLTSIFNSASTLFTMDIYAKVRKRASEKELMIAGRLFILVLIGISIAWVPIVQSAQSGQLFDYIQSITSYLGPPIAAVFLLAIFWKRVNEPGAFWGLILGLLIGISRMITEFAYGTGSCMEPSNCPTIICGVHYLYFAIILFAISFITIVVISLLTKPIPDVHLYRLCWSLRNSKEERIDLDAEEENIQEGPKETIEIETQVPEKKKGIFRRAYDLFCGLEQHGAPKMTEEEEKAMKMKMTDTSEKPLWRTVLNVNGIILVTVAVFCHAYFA
# Test Summary: SGLT1 inhibitory activity: 14C-AMG uptake into CHO-K1 cell line stably expressing human SGLT1
# Format: cell-based
# Experimental Context: 14C-AMG uptake, CHO-K1 cells stably expressing human SGLT1
Assay Readout: IC50 (nM)

Example compounds with recorded IC50:
[[record]]
compound = "CC(C)(OCc1cc(Cl)cc(-c2cc(NC(=O)[C@@H]3CNC(=O)C3)nn2-c2ccccc2)c1)C(F)(F)F [Example 243]"
assay_readout = "IC50"
units_of_measure = "nM"
observed_value = 14

[[record]]
compound = "C[C@@H](OCc1cc(Cl)cc(-c2cc(NC(=O)[C@H]3CNC(=O)N3)nn2-c2ccc(F)cc2)c1)C(F)(F)F [Example 598]"
assay_readout = "IC50"
units_of_measure = "nM"
observed_value = 47

[[record]]
compound = "CCOc1cccc(-n2nc(NC(=O)[C@@H]3CNC(=O)C3)cc2-c2cccc(CO[C@H](C)C(F)(F)F)c2)c1F [Example 485]"
assay_readout = "IC50"
units_of_measure = "nM"
observed_value = 4.1

[[record]]
compound = "CCCc1cccc(-c2cc(NC(=O)[C@@H]3CNC(=O)C3)nn2-c2cc(C)ccc2C)c1 [Example 324]"
assay_readout = "IC50"
units_of_measure = "nM"
observed_value = 2.2


(a) CC(C)(OCc1cccc(-c2cc(NC(=O)[C@H]3CNC(=O)N3)nn2-c2ccc(Cl)cc2)c1)C(F)(F)F [Example 599]
(b) C/C=C/c1cccc(-n2nc(NC(=O)[C@@H]3CNC(=O)C3)cc2-c2cccc(CCC)c2)c1 [Example 494]
// max by IC50 over [ a , b ] // caller expects the label of the chosen entry a
(a: 27 nM, b: 9.1 nM)
